# Test system: Mycobacterium tuberculosis
# assay_protocol: Antimycobacterial activity against Mycobacterium tuberculosis H37Rv after 7 days in presence of middlebrook 7H9/ADC medium by microplate alamar blue assay
# Type: functional
# condition_summary: 168 h
quantity: MIC90

| chemical_smiles | MIC90 |
| --- | --- |
| CS(=O)(=O)c1ccc2c(c1)nc(-c1ccccc1)n2CCCNc1ccnc2cc(Cl)ccc12 | > 62.5 µM |
| N#Cc1ccc2c(c1)nc(-c1ccccc1)n2CCCNc1ccnc2cc(Cl)ccc12 | > 62.5 µM |

IN: Which value of MIC90 has been reported for Cc1ccc2c(c1)nc(-c1ccccc1)n2CCCNc1ccnc2cc(Cl)ccc12 in the records?
OUT: > 62.5 µM
